Below: a set of entries, each annotated with reported Kd.
Target: recombinant soluble C domain of ACE1 (sACE1) (Homo sapiens, UniProt P12821)
Construct: The cDNA coding for the soluble C domain of ACE1 (Ile640-Ala1231) was obtained by PCR amplification; HSA signal peptide (N); made in house; host or cells: HEK293 (transient transfection, protein purified from the culture supernatant)
Sequence (P12821 640-1231): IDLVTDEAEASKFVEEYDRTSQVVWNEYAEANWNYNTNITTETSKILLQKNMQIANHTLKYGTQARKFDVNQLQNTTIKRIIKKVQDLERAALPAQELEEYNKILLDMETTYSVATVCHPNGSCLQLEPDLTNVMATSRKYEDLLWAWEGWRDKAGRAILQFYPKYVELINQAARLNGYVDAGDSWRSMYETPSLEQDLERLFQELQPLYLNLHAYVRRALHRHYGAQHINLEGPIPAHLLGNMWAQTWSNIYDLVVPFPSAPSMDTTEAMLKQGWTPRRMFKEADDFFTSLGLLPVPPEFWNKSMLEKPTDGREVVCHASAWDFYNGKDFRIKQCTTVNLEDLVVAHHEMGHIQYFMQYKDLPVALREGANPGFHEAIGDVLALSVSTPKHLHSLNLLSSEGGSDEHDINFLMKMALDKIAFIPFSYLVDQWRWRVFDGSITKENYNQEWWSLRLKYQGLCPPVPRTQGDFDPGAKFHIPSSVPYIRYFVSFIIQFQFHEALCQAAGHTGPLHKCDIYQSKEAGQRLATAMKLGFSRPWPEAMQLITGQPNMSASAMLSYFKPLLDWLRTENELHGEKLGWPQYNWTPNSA
Test: SPR determination of affinity between TCM metabolites and immobilized sACE1 (Biacore T200, CM5 chip)
Type: binding
Conditions: SPR, sACE1 on CM5 chip, 0.39-50.0 µM metabolite, 25 °C; read-out: KD (equilibrium dissociation constant)

{"Smiles structure": "O=c1cc(-c2ccc(O)c(O)c2)oc2cc(O)c([C@@H]3O[C@H](CO)[C@@H](O)[C@H](O)[C@H]3O)c(O)c12", "Kd": "10.2 µM"}
{"Smiles structure": "Oc1cc(O)c2c(c1)O[C@H](c1ccc(O)c(O)c1)[C@@H](O)C2", "Kd": "48.3 µM"}
{"Smiles structure": "O=c1c(O[C@@H]2O[C@H](CO)[C@@H](O)[C@H](O)[C@H]2O)c(-c2ccc(O)c(O)c2)oc2cc(O)cc(O)c12", "Kd": "5.76 µM"}
{"Smiles structure": "O=c1cc(-c2ccc(O)c(O)c2)oc2c([C@@H]3O[C@H](CO)[C@@H](O)[C@H](O)[C@H]3O)c(O)cc(O)c12", "Kd": "9.32 µM"}
{"Smiles structure": "O=c1c(-c2ccc(O)cc2)coc2c([C@@H]3O[C@H](CO)[C@@H](O)[C@H](O)[C@H]3O)c(O)ccc12", "Kd": "13.8 µM"}
